Reference source for all entries: patent US20220265629A1

methodDescription: Single ascending oral dose study in healthy volunteers: plasma pharmacokinetics
Type: in vivo, human
conditionContext: human, plasma, oral, 525 mg; read-out: Vz/F, Geometric Mean
quantityName: Vd/F (L)
Output spec: scalar in L, unitless text.

QUERY: Query: Vd/F; subject: "Cn1cc(S(=O)(=O)[C@@](C)(F)C2CCN(C(=O)Nc3ccon3)CC2)c(C(F)F)n1"
RESULT: 162

###

methodDescription: Food effect cross-over study, 200 mg (25 mg tablets), healthy volunteers: plasma pharmacokinetics
Format: in vivo, human
conditionContext: human, plasma, oral, 9 hours postdose, Fasted, read-out: Plasma concentration, Median
quantityName: concentration at 9 h
Remember to put the unit after the number in your answer.

QUERY: Query: concentration at 9 h; subject: Cn1cc(S(=O)(=O)[C@@](C)(F)C2CCN(C(=O)Nc3ccon3)CC2)c(C(F)F)n1 [Compound I]
RESULT: 2040 ng/mL

###

methodDescription: Food effect cross-over study, 200 mg (25 mg tablets), healthy volunteers: plasma pharmacokinetics
Type: in vivo, human
conditionContext: human, plasma, po, single 200 mg oral dose, Fasted (N = 10), read-out: MRT, Median
quantityName: MRT (h)
Output spec: scalar in h, unitless text.

QUERY: Query: MRT; subject: Cn1cc(S(=O)(=O)[C@@](C)(F)C2CCN(C(=O)Nc3ccon3)CC2)c(C(F)F)n1 [Compound I]
RESULT: 23.9

###

methodDescription: Single ascending oral dose study in healthy volunteers: plasma pharmacokinetics
Type: in vivo, human
conditionContext: human, plasma, oral, 175 mg; read-out: Mean Residence Time, Mean
quantityName: MRT
Remember to put the unit after the number in your answer.

QUERY: Query: MRT; subject: "Cn1cc(S(=O)(=O)[C@@](C)(F)C2CCN(C(=O)Nc3ccon3)CC2)c(C(F)F)n1"
RESULT: 24.6 h

###

methodDescription: Single ascending oral dose study in healthy volunteers: plasma pharmacokinetics
Format: in vivo, human
conditionContext: human, plasma, oral, 350 mg, 12 Hours Postdose; 350 mg; read-out: Plasma concentration, Geometric Mean
quantityName: concentration at 12 h (µg/mL)
Output spec: scalar in µg/mL, unitless text.

QUERY: Query: concentration at 12 h; subject: Cn1cc(S(=O)(=O)[C@@](C)(F)C2CCN(C(=O)Nc3ccon3)CC2)c(C(F)F)n1 [Compound I]
RESULT: 2.09

###

methodDescription: Single ascending oral dose study in healthy volunteers: plasma pharmacokinetics
Type: in vivo, human
conditionContext: human, plasma, oral, 25 mg; read-out: AUC0-48, Median
quantityName: AUC(0-t) (ng·h/mL)
Output spec: scalar in ng·h/mL, unitless text.

QUERY: Query: AUC(0-t); subject: "Cn1cc(S(=O)(=O)[C@@](C)(F)C2CCN(C(=O)Nc3ccon3)CC2)c(C(F)F)n1"
RESULT: 6890

###

methodDescription: HFrEF study Part 1 (SAD Cohorts 1 and 2): plasma pharmacokinetics
Assay type: in vivo, human
conditionContext: human, plasma, oral, 350 mg, SAD Cohort 1, 4th dose 350 mg (n = 1); read-out: Cmax
Protocol: Part 1 was a randomized, crossover, DB, placebo-controlled, two-cohort, sequential ascending (oral) single-close study in ambulatory patients with heart failure. […] For each dosing period, patients were admitted to the clinical site on Day −1. Patients were assessed for absence of exclusion criteria (e.g., new lab abnormalities and/or conditions that indicate the patient is clinically unstable). […]
quantityName: Cmax
Remember to put the unit after the number in your answer.

QUERY: Query: Cmax; subject: "Cn1cc(S(=O)(=O)[C@@](C)(F)C2CCN(C(=O)Nc3ccon3)CC2)c(C(F)F)n1"
RESULT: 3590 ng/mL
